- Tested on: DOHH-2
- testDescription: Combination study, ATPLite 72 h, dose matrix (Synergy Score, CI50)
- conditionParameters: combination with Compound 1, 72 h
Where a name gives a salt, the structure may show the parent alone.
measurementKind: CI50 growth inhibition

* NC1(c2ccc(-c3nc4ccn5c(=O)[nH]nc5c4cc3-c3ccccc3)cc2)CCC1 | S (S=0.01 to <0.5)
* COc1cccc2c1C(=O)c1c(O)c3c(c(O)c1C2=O)C[C@@](O)(C(=O)CO)C[C@@H]3O[C@H]1C[C@H](N)[C@H](O)[C@H](C)O1 [Doxorubicin HCl] | T (T=0.5 to <0.7)
* Nc1ncn([C@@H]2O[C@H](CO)[C@@H](O)[C@H]2O)c(=O)n1 | U (U=0.7 to <1)
* Nc1cccc2c1CN(C1CCC(=O)NC1=O)C2=O (stereo not shown) [lenalidomide] | S (S=0.01 to <0.5)
* CCCCCCCCCCCCCCCCCCOP(=O)([O-])OC1CC[N+](C)(C)CC1 | T (T=0.5 to <0.7)

Attention now shifts to the item below.
For CC(C)C[C@H](NC(=O)[C@H](CCc1ccccc1)NC(=O)CN1CCOCC1)C(=O)N[C@@H](Cc1ccccc1)C(=O)N[C@@H](CC(C)C)C(=O)[C@@]1(C)CO1 the molecule record lists CI50 growth inhibition as U (U=0.7 to <1)

----------
- Test system: KARPAS-422
- testDescription: Combination study, ATPLite 72 h, dose matrix (Synergy Score, CI50)
- conditionParameters: combination with Compound 1, 72 h
measurementKind: Synergy Score inhibition

Illustrative cases are given below, each with its answer.
- CS(=O)(=O)N1CCN(Cc2cc3nc(-c4cccc5[nH]ncc45)nc(N4CCOCC4)c3s2)CC1: A1 (A1=0.0001 to <1)
- O=C(NOC[C@H](O)CO)c1ccc(F)c(F)c1Nc1ccc(I)cc1F: A2 (A2=1 to <3)
- Nc1cccc2c1CN(C1CCC(=O)NC1=O)C2=O (stereo not shown) [lenalidomide]: A2 (A2=1 to <3)
- CO[C@H]1C[C@@H]2CC[C@@H](C)[C@@](O)(O2)C(=O)C(=O)N2CCCC[C@H]2C(=O)O[C@H]([C@H](C)C[C@@H]2CC[C@@H](OCCO)[C@H](OC)C2)CC(=O)[C@H](C)/C=C(\C)[C@@H](O)[C@@H](OC)C(=O)[C@H](C)C[C@H](C)/C=C/C=C/C=C/1C: A2 (A2=1 to <3)
- CN1CCc2c(c3ccccc3n2Cc2ccc(C(=O)NO)cc2)C1.Cl [Tubastatin A hydrochloride]: A1 (A1=0.0001 to <1)

Attention now shifts to the item below.
For O=C(Nc1ccc2[nH]nc(-c3ccncc3)c2c1)[C@@H]1CCN(CC(=O)N2CCN(c3ccc(-c4ncccn4)cc3)CC2)C1 the compound record lists Synergy Score inhibition as A1 (A1=0.0001 to <1)

----------
- System: Jeko-1
- testDescription: Combination study, ATPLite 72 h, dose matrix (Synergy Score, CI50)
- conditionParameters: combination with Compound 1
measurementKind: Synergy Score growth inhibition

* CC(C)C[C@H](NC(=O)[C@H](CCc1ccccc1)NC(=O)CN1CCOCC1)C(=O)N[C@@H](Cc1ccccc1)C(=O)N[C@@H](CC(C)C)C(=O)[C@@]1(C)CO1 [carfilzomib] | A1 (A1=0.0001 to <1)
* O=C(Nc1ccc2[nH]nc(-c3ccncc3)c2c1)[C@@H]1CCN(CC(=O)N2CCN(c3ccc(-c4ncccn4)cc3)CC2)C1 [SCH772984] | A1 (A1=0.0001 to <1)
* Nc1cccc2c1CN(C1CCC(=O)NC1=O)C2=O (stereo not shown) [lenalidomide] | A2 (A2=1 to <3)
* NC1(c2ccc(-c3nc4ccn5c(=O)[nH]nc5c4cc3-c3ccccc3)cc2)CCC1 [MK-2206] | A2 (A2=1 to <3)

For CO[C@H]1C[C@@H]2CC[C@@H](C)[C@@](O)(O2)C(=O)C(=O)N2CCCC[C@H]2C(=O)O[C@H]([C@H](C)C[C@@H]2CC[C@@H](OCCO)[C@H](OC)C2)CC(=O)[C@H](C)/C=C(\C)[C@@H](O)[C@@H](OC)C(=O)[C@H](C)C[C@H](C)/C=C/C=C/C=C/1C [everolimus] the compound record lists Synergy Score growth inhibition as A2 (A2=1 to <3)

For CN1CCc2c(c3ccccc3n2Cc2ccc(C(=O)NO)cc2)C1.Cl [Tubastatin A hydrochloride] the compound record lists Synergy Score growth inhibition as A1 (A1=0.0001 to <1)

----------
- Test system: Mino
- testDescription: Combination study, ATPLite 72 h, dose matrix (Synergy Score, CI50)
- conditionParameters: combination with Compound 1
measurementKind: Synergy Score growth inhibition

• CO[C@H]1C[C@@H]2CC[C@@H](C)[C@@](O)(O2)C(=O)C(=O)N2CCCC[C@H]2C(=O)O[C@H]([C@H](C)C[C@@H]2CC[C@@H](OCCO)[C@H](OC)C2)CC(=O)[C@H](C)/C=C(\C)[C@@H](O)[C@@H](OC)C(=O)[C@H](C)C[C@H](C)/C=C/C=C/C=C/1C = A2 (A2=1 to <3)
• CC(C)C[C@H](NC(=O)[C@H](CCc1ccccc1)NC(=O)CN1CCOCC1)C(=O)N[C@@H](Cc1ccccc1)C(=O)N[C@@H](CC(C)C)C(=O)[C@@]1(C)CO1 = A2 (A2=1 to <3)

----------
- Test system: OCI-Ly3
- testDescription: Combination study, ATPLite 72 h, dose matrix (Synergy Score, CI50)
- conditionParameters: combination with Compound 1; OCI-Ly3; 72 h
Where a name gives a salt, the structure may show the parent alone.
measurementKind: Synergy Score growth inhibition

- CO[C@H]1C[C@@H]2CC[C@@H](C)[C@@](O)(O2)C(=O)C(=O)N2CCCC[C@H]2C(=O)O[C@H]([C@H](C)C[C@@H]2CC[C@@H](OCCO)[C@H](OC)C2)CC(=O)[C@H](C)/C=C(\C)[C@@H](O)[C@@H](OC)C(=O)[C@H](C)C[C@H](C)/C=C/C=C/C=C/1C: A2 (A2=1 to <3)
- CS(=O)(=O)N1CCN(Cc2cc3nc(-c4cccc5[nH]ncc45)nc(N4CCOCC4)c3s2)CC1: A1 (A1=0.0001 to <1)
- NC1(c2ccc(-c3nc4ccn5c(=O)[nH]nc5c4cc3-c3ccccc3)cc2)CCC1: A2 (A2=1 to <3)
- COc1cccc2c1C(=O)c1c(O)c3c(c(O)c1C2=O)C[C@@](O)(C(=O)CO)C[C@@H]3O[C@H]1C[C@H](N)[C@H](O)[C@H](C)O1 [Doxorubicin HCl]: A2 (A2=1 to <3)
- C[C@@H]1C[C@H]2[C@@H]3CCC4=CC(=O)C=C[C@]4(C)[C@@]3(F)[C@@H](O)C[C@]2(C)[C@@]1(O)C(=O)CO: A1 (A1=0.0001 to <1)

Attention now shifts to the item below.
For CCCCCCCCCCCCCCCCCCOP(=O)([O-])OC1CC[N+](C)(C)CC1 the compound record lists Synergy Score growth inhibition as A1 (A1=0.0001 to <1)

----------
- System: HBL-1
- testDescription: Combination study, ATPLite 72 h, dose matrix (Synergy Score, CI50)
- conditionParameters: combination with Compound 1, 72 h
measurementKind: CI50 growth inhibition

- CN1CCc2c(c3ccccc3n2Cc2ccc(C(=O)NO)cc2)C1.Cl [Tubastatin A hydrochloride]: U (U=0.7 to <1)
- CC(C)C[C@H](NC(=O)[C@H](Cc1ccccc1)NC(=O)c1cnccn1)B(O)O [bortezomib]: U (U=0.7 to <1)

----------
- Test system: WSU-NHL
- testDescription: Combination study, ATPLite 72 h, dose matrix (Synergy Score, CI50)
- conditionParameters: combination with Compound 1, 72 h
measurementKind: CI50 growth inhibition

• NC1(c2ccc(-c3nc4ccn5c(=O)[nH]nc5c4cc3-c3ccccc3)cc2)CCC1 = S (S=0.01 to <0.5)
• O=C(NOC[C@H](O)CO)c1ccc(F)c(F)c1Nc1ccc(I)cc1F = S (S=0.01 to <0.5)
• CC(=O)Nc1cccc(-n2c(=O)n(C3CC3)c(=O)c3c(Nc4ccc(I)cc4F)n(C)c(=O)c(C)c32)c1 = T (T=0.5 to <0.7)
• Nc1cccc2c1CN(C1CCC(=O)NC1=O)C2=O (centres unmarked) [lenalidomide] = T (T=0.5 to <0.7)

----------
- Tested on: SU-DHL-10-epst
- testDescription: Combination study, ATPLite 72 h, dose matrix (Synergy Score, CI50)
- conditionParameters: combination with Compound 1, 72 h
measurementKind: CI50 inhibition

- COc1ccc(-c2ccc3c(N4CCOC[C@@H]4C)nc(N4CCOC[C@@H]4C)nc3n2)cc1CO [AZD 8055]: S (S=0.01 to <0.5)
- O=C(NOC[C@H](O)CO)c1ccc(F)c(F)c1Nc1ccc(I)cc1F [PD0325901]: S (S=0.01 to <0.5)
- CC(=O)Nc1cccc(-n2c(=O)n(C3CC3)c(=O)c3c(Nc4ccc(I)cc4F)n(C)c(=O)c(C)c32)c1 [trametinib]: S (S=0.01 to <0.5)
